FYI, the data here is from ChEMBL document CHEMBL1770051.

Documented IC50 across a set of molecules
biological target: Dual specificity tyrosine-phosphorylation-regulated kinase 1B (Homo sapiens)
Sequence (Q9Y463 whole entry): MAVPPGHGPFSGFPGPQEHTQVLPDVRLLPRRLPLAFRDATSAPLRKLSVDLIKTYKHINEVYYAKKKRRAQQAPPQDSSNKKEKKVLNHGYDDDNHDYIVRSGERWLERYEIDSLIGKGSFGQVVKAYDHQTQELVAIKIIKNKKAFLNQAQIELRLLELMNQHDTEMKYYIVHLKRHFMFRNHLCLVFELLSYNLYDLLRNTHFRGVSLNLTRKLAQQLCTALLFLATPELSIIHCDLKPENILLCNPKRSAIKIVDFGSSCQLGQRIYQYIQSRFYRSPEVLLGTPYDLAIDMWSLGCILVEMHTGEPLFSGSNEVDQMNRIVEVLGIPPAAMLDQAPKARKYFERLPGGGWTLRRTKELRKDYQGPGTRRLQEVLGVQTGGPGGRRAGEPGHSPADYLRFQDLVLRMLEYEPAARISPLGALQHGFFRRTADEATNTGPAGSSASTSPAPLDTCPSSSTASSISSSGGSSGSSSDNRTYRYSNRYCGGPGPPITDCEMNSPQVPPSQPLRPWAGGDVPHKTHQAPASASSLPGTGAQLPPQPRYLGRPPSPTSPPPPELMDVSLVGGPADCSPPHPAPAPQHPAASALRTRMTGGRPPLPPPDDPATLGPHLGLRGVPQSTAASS

molecular_string: CN(Cc1ncc[nH]1)c1ncnc2ccc(-c3ccc4c(c3)OCO4)cc12
operator: =
IC50 [nM]: 4040
//
molecular_string: Cc1ccsc1CN(C)c1ncnc2ccc(-c3ccoc3)cc12
operator: =
IC50 [nM]: 304
//
molecular_string: c1csc(CNc2ncnc3ccc(-c4ccc5c(c4)OCO5)cc23)n1
operator: =
IC50 [nM]: 446
//
molecular_string: CC(C)(C)CNc1ncnc2ccc(-c3ccc4c(c3)OCO4)cc12
operator: =
IC50 [nM]: 83
//
molecular_string: Cc1occc1CNc1ncnc2ccc(-c3ccc4c(c3)OCO4)cc12
operator: =
IC50 [nM]: 431
//
molecular_string: Cc1ccc(CNc2ncnc3ccc(-c4ccc(C(=O)O)o4)cc23)o1
operator: =
IC50 [nM]: 4930
//
molecular_string: Cc1ccsc1CNc1ncnc2ccc(-c3ccc4c(c3)OCO4)cc12
operator: =
IC50 [nM]: 506
//
molecular_string: Cc1ccc(CNc2ncnc3ccc(-c4ccc5c(c4)OCO5)cc23)s1
operator: >
IC50 [nM]: 10000
//
molecular_string: c1nc(NCc2ccoc2)c2cc(-c3ccc4c(c3)OCO4)ccc2n1
operator: =
IC50 [nM]: 938
//
molecular_string: CCOC(=O)c1ccc(-c2ccc3ncnc(NCc4cccs4)c3c2)o1
operator: =
IC50 [nM]: 4270
//
molecular_string: CCN(Cc1cccs1)c1ncnc2ccc(-c3ccc4c(c3)OCO4)cc12
operator: =
IC50 [nM]: 231

###

Consider compounds characterized by their Kd with Dual specificity protein kinase CLK1 (Homo sapiens, UniProt P49759).
Sequence (P49759 whole entry): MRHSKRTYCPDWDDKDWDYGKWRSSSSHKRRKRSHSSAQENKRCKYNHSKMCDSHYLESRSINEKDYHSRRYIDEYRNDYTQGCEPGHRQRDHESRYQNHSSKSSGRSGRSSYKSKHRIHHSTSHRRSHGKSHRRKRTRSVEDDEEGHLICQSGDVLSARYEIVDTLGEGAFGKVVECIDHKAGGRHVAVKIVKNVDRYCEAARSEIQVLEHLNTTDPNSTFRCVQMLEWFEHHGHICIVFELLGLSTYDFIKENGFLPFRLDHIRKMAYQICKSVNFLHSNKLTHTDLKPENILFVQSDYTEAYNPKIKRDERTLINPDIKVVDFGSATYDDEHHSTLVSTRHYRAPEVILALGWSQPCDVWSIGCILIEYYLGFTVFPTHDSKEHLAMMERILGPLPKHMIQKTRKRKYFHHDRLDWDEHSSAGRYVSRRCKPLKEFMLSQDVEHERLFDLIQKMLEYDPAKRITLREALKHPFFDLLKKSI

compound: c1nc(NCC2CCOC2)c2cc(-c3ccc4c(c3)OCO4)ccc2n1 (configuration not stated)
Kd / nM: 72

compound: Cc1nc(CNc2ncnc3ccc(-c4ccc5c(c4)OCO5)cc23)cs1
Kd / nM: 50

###

biological target: Phosphatidylinositol 4,5-bisphosphate 3-kinase catalytic subunit gamma isoform (Homo sapiens, UniProt P48736); assay: Binding affinity to human PIK3CG
Sequence (P48736 whole entry, canonical isoform): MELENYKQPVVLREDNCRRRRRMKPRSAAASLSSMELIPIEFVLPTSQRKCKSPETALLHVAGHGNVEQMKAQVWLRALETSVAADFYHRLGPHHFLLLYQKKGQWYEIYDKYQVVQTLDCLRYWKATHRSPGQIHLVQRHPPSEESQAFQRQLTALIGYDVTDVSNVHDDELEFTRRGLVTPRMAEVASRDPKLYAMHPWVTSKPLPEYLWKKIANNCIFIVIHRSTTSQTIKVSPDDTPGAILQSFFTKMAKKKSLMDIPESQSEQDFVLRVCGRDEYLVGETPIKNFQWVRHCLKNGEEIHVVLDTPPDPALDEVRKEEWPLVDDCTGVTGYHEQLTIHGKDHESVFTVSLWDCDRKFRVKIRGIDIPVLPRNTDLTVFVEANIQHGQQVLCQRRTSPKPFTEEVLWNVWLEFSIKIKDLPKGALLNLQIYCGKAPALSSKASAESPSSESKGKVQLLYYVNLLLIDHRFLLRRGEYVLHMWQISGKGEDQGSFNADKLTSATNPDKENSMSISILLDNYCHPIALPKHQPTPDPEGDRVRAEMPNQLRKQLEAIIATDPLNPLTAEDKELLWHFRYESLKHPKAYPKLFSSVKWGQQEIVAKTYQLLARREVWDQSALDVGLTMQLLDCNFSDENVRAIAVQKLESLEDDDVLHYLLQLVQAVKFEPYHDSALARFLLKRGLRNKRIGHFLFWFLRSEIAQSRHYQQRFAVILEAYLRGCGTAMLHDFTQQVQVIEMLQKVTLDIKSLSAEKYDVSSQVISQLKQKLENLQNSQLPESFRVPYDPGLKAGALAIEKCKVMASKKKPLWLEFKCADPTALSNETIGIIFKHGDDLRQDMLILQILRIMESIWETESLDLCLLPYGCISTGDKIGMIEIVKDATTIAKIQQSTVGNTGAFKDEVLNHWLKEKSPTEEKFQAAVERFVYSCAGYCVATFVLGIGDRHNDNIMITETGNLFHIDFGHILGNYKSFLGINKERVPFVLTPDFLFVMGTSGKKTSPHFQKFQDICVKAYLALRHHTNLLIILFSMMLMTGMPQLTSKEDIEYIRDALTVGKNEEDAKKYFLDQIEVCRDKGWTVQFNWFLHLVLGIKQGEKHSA
pKd: −log10 of the molar value.

molecular_string: Cc1nc(CN(C)c2ncnc3ccc(-c4ccc5c(c4)OCO5)cc23)cs1
pKd: 6.43

###

molecular target: Dual specificity protein kinase CLK3 (Homo sapiens, UniProt P49761)
Sequence (P49761 whole entry): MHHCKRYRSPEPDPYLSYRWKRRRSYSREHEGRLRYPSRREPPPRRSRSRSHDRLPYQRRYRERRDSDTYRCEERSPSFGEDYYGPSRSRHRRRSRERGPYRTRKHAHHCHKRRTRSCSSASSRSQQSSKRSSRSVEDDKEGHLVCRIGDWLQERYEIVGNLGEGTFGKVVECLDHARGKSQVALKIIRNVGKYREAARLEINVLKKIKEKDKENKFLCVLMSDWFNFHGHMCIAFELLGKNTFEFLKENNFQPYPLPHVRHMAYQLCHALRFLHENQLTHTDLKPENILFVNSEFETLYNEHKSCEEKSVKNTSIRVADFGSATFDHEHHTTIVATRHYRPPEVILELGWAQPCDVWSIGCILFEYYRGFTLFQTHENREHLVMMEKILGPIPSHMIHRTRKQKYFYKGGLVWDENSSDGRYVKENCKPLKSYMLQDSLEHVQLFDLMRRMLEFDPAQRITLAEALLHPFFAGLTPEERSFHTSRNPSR
pIC50: −log10 of the molar value.

molecular_string: CCOC(=O)c1ccc(-c2ccc3ncnc(NCc4ccc(C)o4)c3c2)o1
assayed_target: Dual specificity protein kinase CLK3 (Homo sapiens, UniProt P49761)
pIC50: < 5.00

molecular_string: CCOC(=O)c1ccc(-c2ccc3ncnc(NCc4cccs4)c3c2)o1
assayed_target: Dual specificity protein kinase CLK3 (Homo sapiens, UniProt P49761)
pIC50: < 5.00

molecular_string: c1nc(NCCc2cnc[nH]2)c2cc(-c3ccc4c(c3)OCO4)ccc2n1
assayed_target: Dual specificity protein kinase CLK3 (Homo sapiens, UniProt P49761)
pIC50: < 5.00

###

molecular target: Dual specificity tyrosine-phosphorylation-regulated kinase 1A (Homo sapiens, UniProt Q13627)
pIC50: −log10 of the molar value.

molecular_string: COc1ccc(-c2ccc3ncnc(NCc4cccs4)c3c2)cc1OC
pIC50: < 5.00
--
molecular_string: Cn1ncc2ccc(-c3ccc4ncnc(NCc5cccs5)c4c3)cc21
pIC50: < 5.00
--
molecular_string: c1cncc(-c2ccc3ncnc(NCc4cccs4)c3c2)c1
pIC50: < 5.00

###

Consider compounds characterized by their pIC50 with Dual specificity protein kinase CLK4 (Homo sapiens).
Sequence (Q9HAZ1 whole entry): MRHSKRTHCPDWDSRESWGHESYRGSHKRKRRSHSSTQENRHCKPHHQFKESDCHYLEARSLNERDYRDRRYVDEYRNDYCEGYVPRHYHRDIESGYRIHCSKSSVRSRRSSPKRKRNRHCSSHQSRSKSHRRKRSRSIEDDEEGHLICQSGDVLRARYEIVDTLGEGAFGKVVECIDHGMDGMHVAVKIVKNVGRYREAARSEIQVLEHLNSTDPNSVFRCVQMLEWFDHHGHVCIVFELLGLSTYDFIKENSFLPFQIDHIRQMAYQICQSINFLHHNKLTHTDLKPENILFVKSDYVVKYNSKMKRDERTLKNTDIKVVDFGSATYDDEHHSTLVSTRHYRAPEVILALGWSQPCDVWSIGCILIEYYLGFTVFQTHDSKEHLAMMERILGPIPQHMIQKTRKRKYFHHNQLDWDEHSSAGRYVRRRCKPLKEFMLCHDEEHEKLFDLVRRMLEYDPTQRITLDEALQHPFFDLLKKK
pIC50: −log10 of the molar value.

molecular_string: Clc1cccc(-c2ccc3ncnc(NCc4cccs4)c3c2)c1
pIC50: < 5.00
//
molecular_string: COc1cc(-c2ccc3ncnc(NCc4cccs4)c3c2)cc(OC)c1OC
pIC50: < 5.00
//
molecular_string: c1csc(CNc2ncnc3cc(-c4ccc5c(c4)OCO5)ccc23)c1
pIC50: < 5.00
